Taken from patent US20240360081A1.

Recorded pEC50, one value per entry.
Molecular target: human recombinant OX2 (hOX2) receptor expressed in CHO cells (Homo sapiens, UniProt O43614)
Test: IP-1 accumulation assay (IP-One HTRF) in hOX2-CHO cells
Conditions: 60 min at 37° C., 11 points CRC, response as % of maximal OX-A response
Experimental: The accumulation of Inositol-1 Monophosphate (IP-1) was measured using IP-One HTRF® Terbium cryptate based assay (Cisbio) in human recombinant OX1 (hOX1) and at OX2 (hOX2) receptors expressed in CHO cells (DiscoverX) according to the manufacturer's instructions for cells tested in suspension. […] The IP-1 accumulation response was expressed as percentage of the maximal OX-A response. […]
pEC50: −log10 of the molar value.

>>> obs_value("CCc1cccn(C(CNS(C)(=O)=O)CO[C@H]2CC[C@@H](c3ccccc3)CC2)c1=O (stereo partly shown) [Example 2]")
"5.00 to 6.00"

Note: attention shifts to another entry.
State the recorded pEC50 for this entry: Cc1cccn(C(CNS(C)(=O)=O)CO[C@H]2CC[C@@H](c3ccccc3)CC2)c1=O (single isomer, unassigned; isomer 1) [Example 1d]
< 5.00

----------
Target: human recombinant OX2 (hOX2) receptor expressed in CHO cells (Homo sapiens)
Sequence (O43614 1-444): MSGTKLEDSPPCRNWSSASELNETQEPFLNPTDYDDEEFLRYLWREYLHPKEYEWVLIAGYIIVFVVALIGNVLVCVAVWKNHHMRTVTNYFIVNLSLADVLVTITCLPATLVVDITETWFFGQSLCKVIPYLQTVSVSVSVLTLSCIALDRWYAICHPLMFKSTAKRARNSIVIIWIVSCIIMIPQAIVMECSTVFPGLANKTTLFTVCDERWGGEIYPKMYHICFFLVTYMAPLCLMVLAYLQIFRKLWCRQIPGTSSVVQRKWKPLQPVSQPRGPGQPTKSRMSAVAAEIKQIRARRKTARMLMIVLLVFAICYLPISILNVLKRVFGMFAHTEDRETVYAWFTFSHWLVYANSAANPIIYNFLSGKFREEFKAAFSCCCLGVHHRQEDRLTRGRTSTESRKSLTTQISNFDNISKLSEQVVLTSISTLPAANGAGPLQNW
Assay: IP-1 accumulation assay (IP-One HTRF) in hOX2-CHO cells
Conditions: 60 min at 37° C., 11 points CRC, response as % of maximal OX-A response
pEC50: −log10 of the molar value.
READOUT KIND: pEC50

>>> obs_value("CS(=O)(=O)NCC(CO[C@H]1CC[C@@H](c2ccccc2)CC1)n1ccc(C(F)(F)F)cc1=O (stereo partly shown)")
"< 5.00"

State the recorded pEC50 for this entry: Cc1cncn(C(CNS(C)(=O)=O)CO[C@H]2CC[C@@H](c3ccccc3)CC2)c1=O (stereo partly shown)
< 5.00

State the recorded pEC50 for this entry: Cc1ccn(C(CNS(C)(=O)=O)CO[C@H]2CC[C@@H](c3ccccc3)CC2)n1 (single isomer, unassigned; isomer 1) [Example 2ab]
< 5.00

State the recorded pEC50 for this entry: Cc1cc(C(CNS(=O)(=O)CF)CO[C@H]2CC[C@@H](c3cccc(F)c3)CC2)c(=O)n(C)c1 (single isomer, unassigned; isomer 2) [Example 5o]
6.00 to 7.00

----------
Target: human recombinant OX2 (hOX2) receptor expressed in CHO cells (Homo sapiens)
Assay: IP-1 accumulation assay (IP-One HTRF) in hOX2-CHO cells
Conditions: 60 min at 37° C., 11 points CRC, response as % of maximal OX-A response
Description: The accumulation of Inositol-1 Monophosphate (IP-1) was measured using IP-One HTRF® Terbium cryptate based assay (Cisbio) in human recombinant OX1 (hOX1) and at OX2 (hOX2) receptors expressed in CHO cells (DiscoverX) according to the manufacturer's instructions for cells tested in suspension. […] The IP-1 accumulation response was expressed as percentage of the maximal OX-A response. […]
READOUT KIND: EC50

>>> obs_value("Cc1cc(C(CNS(=O)(=O)N(C)C)CO[C@H]2CC[C@@H](c3cccc(F)c3)CC2)c(=O)n(C(F)F)c1 (single isomer, unassigned; isomer 2) [Example 5ac]")
"100 to 1000 nM"
>>> obs_value("Cc1cccn(C(CO[C@H]2CC[C@@H](c3ccccc3)CC2)C(C)NS(C)(=O)=O)c1=O (single isomer, unassigned; isomer 3) [Example 3c]")
"> 10000 nM"
>>> obs_value("Cc1cc(C)c(=O)n(C(CNS(C)(=O)=O)CO[C@H]2CC[C@@H](c3ccccc3)CC2)c1 (single isomer, unassigned; isomer 2) [Example 2u]")
"1000 to 10000 nM"

State the recorded EC50 for this entry: CS(=O)(=O)NCC(CO[C@H]1CC[C@@H](c2ccccc2)CC1)n1ccc2cccnc21 (stereo partly shown) [Example 2z]
1000 to 10000 nM

State the recorded EC50 for this entry: Cn1cccc(C(CNS(C)(=O)=O)CO[C@H]2CC[C@@H](c3ccccc3)CC2)c1=O (single isomer, unassigned; isomer 1) [Example 4a]
1000 to 10000 nM

State the recorded EC50 for this entry: CS(=O)(=O)NCC(CO[C@H]1CC[C@@H](c2ccccc2)CC1)n1cc(C(F)(F)F)ccc1=O (stereo partly shown) [Example 2l]
> 10000 nM

State the recorded EC50 for this entry: CS(=O)(=O)NCC(CO[C@H]1CC[C@@H](c2ccccc2)CC1)c1cccn2cnnc12 (stereo partly shown) [Example 5f]
100 to 1000 nM

State the recorded EC50 for this entry: Cc1cc(C(CNS(C)(=O)=O)CO[C@H]2CC[C@@H](c3cccc(F)c3)CC2)c(=O)n(C(F)F)c1 (stereo partly shown) [Example 5x]
< 100 nM

State the recorded EC50 for this entry: Cc1ccnn1C(CNS(C)(=O)=O)CO[C@H]1CC[C@@H](c2ccccc2)CC1 (single isomer, unassigned; isomer 1) [Example 2ad]
> 10000 nM

State the recorded EC50 for this entry: Cc1cccn(C(CO[C@H]2CC[C@@H](c3ccccc3)CC2)C(C)NS(C)(=O)=O)c1=O (single isomer, unassigned; isomer 2) [Example 3b]
1000 to 10000 nM

State the recorded EC50 for this entry: Cc1cc(C(CNS(C)(=O)=O)CO[C@H]2CC[C@@H](c3cccc(F)c3)CC2)c(=O)n(CC#N)c1 (stereo partly shown) [Example 5e]
100 to 1000 nM

----------
Target: human recombinant OX2 (hOX2) receptor expressed in CHO cells (Homo sapiens)
Sequence (O43614 1-444): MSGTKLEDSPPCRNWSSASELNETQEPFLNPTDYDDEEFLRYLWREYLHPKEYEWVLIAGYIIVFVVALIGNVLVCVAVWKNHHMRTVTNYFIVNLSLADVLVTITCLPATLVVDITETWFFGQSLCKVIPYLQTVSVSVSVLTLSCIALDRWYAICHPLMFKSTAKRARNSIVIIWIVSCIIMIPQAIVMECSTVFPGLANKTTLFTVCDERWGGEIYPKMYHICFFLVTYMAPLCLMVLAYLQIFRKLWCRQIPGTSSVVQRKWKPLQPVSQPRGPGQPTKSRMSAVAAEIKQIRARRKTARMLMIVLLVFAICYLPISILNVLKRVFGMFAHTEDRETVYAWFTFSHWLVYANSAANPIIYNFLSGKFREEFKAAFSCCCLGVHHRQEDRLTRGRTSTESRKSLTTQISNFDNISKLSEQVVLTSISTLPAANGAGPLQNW
Assay: IP-1 accumulation assay (IP-One HTRF) in hOX2-CHO cells
Settings: 60 min at 37° C., 11 points CRC, response as % of maximal OX-A response
pEC50: −log10 of the molar value.
Recorded pEC50, one value per entry.

In the examples that follow, each entry is paired with its recorded pEC50.
>>> obs_value("Cc1cc(C(CNS(C)(=O)=O)CO[C@H]2CC[C@@H](c3cccc(F)c3)CC2)c(=O)n(C(F)F)c1 (single isomer, unassigned; isomer 2) [Example 5z]")
"5.00 to 6.00"
>>> obs_value("Cc1cccn(C(CO[C@H]2CC[C@@H](c3ccccc3)CC2)C(C)NS(C)(=O)=O)c1=O (single isomer, unassigned; isomer 1) [Example 3a]")
"5.00 to 6.00"
>>> obs_value("CS(=O)(=O)NCC(CO[C@H]1CC[C@@H](c2ccccc2)CC1)n1ccccc1=O (stereo partly shown) [Example 1]")
"5.00 to 6.00"
>>> obs_value("CS(=O)(=O)NCC(CO[C@H]1CC[C@@H](c2ccccc2)CC1)n1cccc(F)c1=O (single isomer, unassigned; isomer 1) [Example 2g]")
"5.00 to 6.00"
>>> obs_value("Cc1cc(C)nc(C(CNS(C)(=O)=O)CO[C@H]2CC[C@@H](c3ccccc3)CC2)c1 (stereo partly shown) [Example 5i]")
"5.00 to 6.00"
>>> obs_value("Cc1ccc(=O)n(C(CNS(C)(=O)=O)CO[C@H]2CC[C@@H](c3ccccc3)CC2)c1 (single isomer, unassigned; isomer 1) [Example 2j]")
"6.00 to 7.00"
>>> obs_value("Cc1cc(C)c(=O)n(C(CNS(C)(=O)=O)COC2CCN(c3ncc(F)cn3)CC2)c1 (single isomer, unassigned; isomer 1) [Example 2az]")
"5.00 to 6.00"
>>> obs_value("COc1ccc(=O)n(C(CNS(C)(=O)=O)CO[C@H]2CC[C@@H](c3ccccc3)CC2)c1 (stereo partly shown) [Example 2v]")
"5.00 to 6.00"
>>> obs_value("Cc1cc(Cl)cn(C(CNS(C)(=O)=O)CO[C@H]2CC[C@@H](c3cccc(F)c3)CC2)c1=O (single isomer, unassigned; isomer 2) [Example 2ai]")
"5.00 to 6.00"
>>> obs_value("Cc1cc(C)c(=O)n(C(CNS(=O)(=O)CC(F)(F)F)CO[C@H]2CC[C@@H](c3cccc(F)c3)CC2)c1 (stereo partly shown) [Example 2ap]")
"6.00 to 7.00"

What is its pEC50 for human recombinant OX2 (hOX2) receptor expressed in CHO cells (Homo sapiens)? Entry: Cc1cc(C(CNS(=O)(=O)N(C)C)CO[C@H]2CC[C@@H](c3cc(F)cc(F)c3)CC2)c(=O)n(C)c1 (stereo partly shown) [Example 5u]
> 7.00

What is its pEC50 for human recombinant OX2 (hOX2) receptor expressed in CHO cells (Homo sapiens)? Entry: Cc1cc(C)[n+]([O-])c(C(CNS(C)(=O)=O)CO[C@H]2CC[C@@H](c3ccccc3)CC2)c1 (stereo partly shown) [Example 5j]
> 7.00

What is its pEC50 for human recombinant OX2 (hOX2) receptor expressed in CHO cells (Homo sapiens)? Entry: Cc1cc(C)c(=O)n(C(CNS(=O)(=O)N(C)C)CO[C@H]2CC[C@@H](c3cccc(F)c3)CC2)c1 (single isomer, unassigned; isomer 2) [Example 2as]
6.00 to 7.00

What is its pEC50 for human recombinant OX2 (hOX2) receptor expressed in CHO cells (Homo sapiens)? Entry: CS(=O)(=O)NCC(CO[C@H]1CC[C@@H](c2ccccc2)CC1)n1ccc(C#N)cc1=O (stereo partly shown) [Example 2y]
< 5.00

What is its pEC50 for human recombinant OX2 (hOX2) receptor expressed in CHO cells (Homo sapiens)? Entry: Cc1cc(C(CNS(=O)(=O)N(C)C)CO[C@H]2CC[C@@H](c3cccc(F)c3)CC2)c(=O)n(C(F)F)c1 (single isomer, unassigned; isomer 1) [Example 5ab]
> 7.00

What is its pEC50 for human recombinant OX2 (hOX2) receptor expressed in CHO cells (Homo sapiens)? Entry: COCCS(=O)(=O)NCC(CO[C@H]1CC[C@@H](c2cccc(F)c2)CC1)n1cc(C)cc(C)c1=O (stereo partly shown) [Example 2ax]
> 7.00

What is its pEC50 for human recombinant OX2 (hOX2) receptor expressed in CHO cells (Homo sapiens)? Entry: CS(=O)(=O)NCC(CO[C@H]1CC[C@@H](c2ccccc2)CC1)n1ccccc1=O (single isomer, unassigned; isomer 1) [Example 1a]
5.00 to 6.00

What is its pEC50 for human recombinant OX2 (hOX2) receptor expressed in CHO cells (Homo sapiens)? Entry: Cn1cccc(C(CNS(C)(=O)=O)CO[C@H]2CC[C@@H](c3ccccc3)CC2)c1=O (stereo partly shown) [Example 4]
5.00 to 6.00
